Tested on: UACC-62 melanoma
Experiment: NCI tumour cell line growth inhibition, 48 h; in the data active = GI50 below about 0.43 µM; inactive = the rest
Give your call using only these classes: active, inactive

Examples from the recorded data:
>>> df
                           substance_smiles     target_entity  category_label
0  Nc1nc(-c2cccc(Cl)c2)c(-c2ccc3ncccc3n2)s1  UACC-62 melanoma        inactive
1  O=S1(=O)N(CCNc2nccc(-c3c(-c4cccc(O)c4)nc4sccn34)n2)CCN1Cc1ccccc1  UACC-62 melanoma          active
2  N.N.O=C([O-])P(=O)([O-])[O-].[Na+].[Pt+4]  UACC-62 melanoma        inactive

With those in mind, consider the next molecule.
Query :: Name the outcome recorded for N#Cc1cccc(NC(=O)c2cc(-c3ccc(F)cc3F)ccc2O)c1 in the assay.
Result :: inactive

* * *

System: HOP-92 NSCLC
Experiment: NCI tumour cell line growth inhibition, 48 h
Collected TGI values appear next to each entry.

Record excerpt, results attached:
compound	target.entity	TGI
O=c1[nH]c(Nc2nc3ccccc3[nH]2)nc2c1CCC2	HOP-92 NSCLC	> 100 µM
COc1ccc(/C(Cl)=C(\C=O)c2ccc([N+](=O)[O-])cc2)cc1	HOP-92 NSCLC	31.2 µM
COc1ccc(-n2cc(-c3cc(OC)c(OC)c(OC)c3)[nH]c2=O)cc1Cl	HOP-92 NSCLC	> 100 µM
CC(C)(C)C1=CC(=C(c2ccc(-c3c4nc(c(-c5ccc(C(=C6C=C(C(C)(C)C)C(=O)C(C(C)(C)C)=C6)c6cc(C(C)(C)C)c(O)c(C(C)(C)C)c6)cc5)c5ccc([nH]5)c(-c5ccc(C(=C6C=C(C(C)(C)C)C(=O)C(C(C)(C)C)=C6)c6cc(C(C)(C)C)c(O)c(C(C)(C)C)c6)cc5)c5nc(c(-c6ccc(C(=C7C=C(C(C)(C)C)C(=O)C(C(C)(C)C)=C7)c7cc(C(C)(C)C)c(O)c(C(C)(C)C)c7)cc6)c6ccc3[nH]6)C=C5)C=C4)cc2)c2cc(C(C)(C)C)c(O)c(C(C)(C)C)c2)C=C(C(C)(C)C)C1=O	HOP-92 NSCLC	> 100 µM
CC(C)N1CN(C(C(=O)N[C@@H]2C(=O)N3C2SC(C)(C)C3C(=O)O)c2ccccc2)CSC1=S (stereo partly specified)	HOP-92 NSCLC	> 100 µM
COC(=O)C(COC(C)=O)NC(=O)/C=C/c1ccc(O)c(OC(C)=O)c1 (stereo unspecified)	HOP-92 NSCLC	> 100 µM
O=c1[nH]c(=O)n(C2OC(CO)C(O)C(O)C2O)cc1F (stereo unspecified)	HOP-92 NSCLC	> 100 µM
CCn1c2ccccc2n2c(=O)c3c(c(C#N)c12)CCCC3	HOP-92 NSCLC	> 100 µM

Query :: Please report the recorded TGI for CNc1nc2n(CCO)c(-c3ccccc3)c(-c3ccccc3)nc-2c(=O)n1 .
Result :: > 50 µM

Query :: Please report the recorded TGI for C=C[C@H]1C[C@@H]2C[C@@H]3[C@H]4C/C=C\C(=O)NCCCC5NC(=O)C(=C(O)/C=C/[C@@H]4CC(=O)[C@H]3[C@@H]2[C@H]1C)C5=O (stereo partly specified) .
Result :: 0.539 µM

Query :: Please report the recorded TGI for Nc1ncn(C2CC(O)C(CO)O2)c(=O)n1 (stereo unspecified) .
Result :: > 375 µM

* * *

Test system: OVCAR-3 ovarian
Experiment: NCI tumour cell line growth inhibition, 48 h
property.measured: GI50

Record excerpt, results attached:
compound	meas.value
Nc1nc(-c2cccc(Cl)c2)c(-c2ccc3ncccc3n2)s1	> 25000 nM
COc1cc(/C=C2\CCCC3=C2NC(C)=NC3c2cc(OC)c(OC)c(OC)c2)cc(OC)c1OC (stereo not drawn)	2650 nM

Query :: Please report the recorded GI50 for C=C1CC[C@@H]2[C@](C)(COC(C)=O)[C@H](OC(C)=O)CC[C@@]2(C)[C@@H]1CC(Nc1ccc(S(=O)(=O)Nc2ncccn2)cc1)C1=CCOC1=O (stereo partly drawn) .
Result :: 1210 nM

* * *

System: OVCAR-8 ovarian
Assay: NCI tumour cell line growth inhibition, 48 h
Collected TGI values appear next to each entry.

Record excerpt, results attached:
>>> print(df.to_string())
                                   compound    target_entity  property_measured  meas_value
0  O=C(O)Cc1cccc2c1OC(c1ccccc1)C(Cl)(C(=O)c1ccccc1)C2=O (stereo not given)  OVCAR-8 ovarian                TGI     65.2 µM
1  COc1ccc2c3c(coc13)C(CCC(=O)O)CC2 (stereo not given)  OVCAR-8 ovarian                TGI    > 100 µM
2  COC1=CC2(C=CC1=O)c1cc(OC)c(OC)cc1CCN2C(=O)c1ccccc1 (stereo not given)  OVCAR-8 ovarian                TGI    > 100 µM
3  CCn1c(SCC(=O)NNC(=S)Nc2ccc(C)cc2)nc2ccccc2c1=O  OVCAR-8 ovarian                TGI    > 100 µM
4    N#C/C(=C\c1cc2ccccc2c2ccccc12)c1ccccc1  OVCAR-8 ovarian                TGI    > 100 µM
5  CCc1c(C)c(C#N)c(=S)n(C2OC(COC(C)=O)C(OC(C)=O)C(OC(C)=O)C2OC(C)=O)c1C (stereo not given)  OVCAR-8 ovarian                TGI    > 100 µM

Query :: Tell me reported TGI for Cc1nc2ccccc2n1C(=O)c1c(F)c(F)c(F)c(F)c1F , tested with OVCAR-8 ovarian.
Result :: 40.6 µM

Query :: Tell me reported TGI for CC(C)=CC(=O)C[C@H]1C(=O)O[C@@H]2C[C@H]3C(C)=CC(=O)[C@@H](O)[C@]3(C)[C@H]3[C@@]4(O)OC[C@]32[C@@H]1[C@@H](C)[C@H]4O , tested with OVCAR-8 ovarian.
Result :: 0.283 µM

Query :: Tell me reported TGI for O=C1/C(=C/c2ccc(O)cc2)CSc2ccc(Cl)cc21 , tested with OVCAR-8 ovarian.
Result :: > 100 µM

Query :: Tell me reported TGI for O=C1O/C(=C(/Cl)c2cccc3ccccc23)c2ccccc21 , tested with OVCAR-8 ovarian.
Result :: > 100 µM

* * *

Test system: 786-0 renal
Assay: NCI tumour cell line growth inhibition, 48 h
Where a SMILES comes first, the peptide text is derived from it. The star is where a group is joined. Cbz = O=C(OCc1ccccc1)*; Boc = CC(C)(C)OC(=O)*; tBu = CC(C)(C)*
Collected TGI values appear next to each entry.

Record excerpt, results attached:
compound	TGI
N#Cc1c(-c2ccccc2)cc(Nc2cccc(C(F)(F)F)c2)n2c1nc1ccccc12	6.57 µM
COc1ccc(OC)c(C(=O)c2oc3ccc(Br)cc3c2N)c1	47.4 µM
COC1(OC)CC(CO)(CNc2nc(N)nc(Cl)c2/C=N\O)C1	> 100 µM
O=C(/C=C/c1c(O)ccc2ccccc12)c1ccccc1	> 100 µM
CC(OC(C)(C)C)C(NC(=O)C(CCCCNC(=O)OC(C)(C)C)NC(=O)C(Cc1c[nH]c2ccccc12)NC(=O)C(Cc1ccccc1)NC(=O)OCc1ccccc1)C(=O)NC(Cc1ccccc1)C(=O)O (centres undefined) (Cbz-FWK(Boc)T(tBu)F-OH; configuration not given here)	> 100 µM
COc1cccc(N2C(=O)[C@H]3CC(C)c4c([nH]c5ccccc45)[C@H]3C2=O)c1 (some centres undefined)	50.5 µM

Query :: Please report the recorded TGI for CC1(C)CC(=O)C(/C=N/c2nc(-c3ccccc3)cs2)=C(O)C1 .
Result :: > 100 µM

Query :: Please report the recorded TGI for CC1(C)N=C(N)N=C(N)N1c1ccc(OCc2ccc(S(=O)(=O)F)c(Cl)c2)c(Cl)c1 .
Result :: > 100 µM

Query :: Please report the recorded TGI for Cc1cc(=O)n2nc(CN3CCCCC3)sc2n1 .
Result :: > 100 µM

* * *

Collected TGI values appear next to each entry.
System: NCI-H460 lung
Assay: NCI tumour cell line growth inhibition, 48 h

Record excerpt, results attached:
                                   molecule  property_measured  meas_value
0     O=c1[nH]c(Nc2nc3ccccc3[nH]2)nc2c1CCC2                TGI    > 100 µM
1  CC1=CC(=O)N(n2c(Cc3ccccc3)n[nH]c2=O)C1=O                TGI    > 100 µM
2  COc1ccc(N2C(=O)C3ON(C(C(N)=O)c4ccccc4)C(c4cc5ccccc5c5ccccc45)C3C2=O)cc1 (centres undefined)                TGI     > 50 µM
3  Cn1cnc([N+](=O)[O-])c1[Se]c1nc(N)nc2c1ncn2C1OC(CO)C(O)C1O (centres undefined)                TGI    > 100 µM
4  CNc1nc2n(CCO)c(-c3ccccc3)c(-c3ccccc3)nc-2c(=O)n1                TGI     > 50 µM
5  CC(C)c1cc2c(O)c(c1)Cc1cc(C(C)C)cc(c1O)Cc1cc(C(C)C)cc(c1O)Cc1cc(C(C)C)cc(c1O)C2                TGI    > 100 µM
6  COc1cc2c(c(OC)c1OC)-c1c(cc3c(c1OC)OCO3)C1OC2C(C)C1C (centres undefined) (tested in a mixture with another compound)                TGI    > 100 µM
7     CCc1oc2ccccc2c1C(=O)c1cc(I)c(O)c(I)c1                TGI     8.94 µM

# ---- query molecule ----
Query :: Please report the recorded TGI for Cc1cc(C)n(C2OC(CO)C(O)C(O)C2O)c(=S)c1C#N (centres undefined) .
Result :: > 100 µM
